- subject-of-test: 3-oxoacyl-[acyl-carrier-protein] synthase 3 (Escherichia coli, UniProt C3TDZ2)
- Sequence (C3TDZ2 whole entry): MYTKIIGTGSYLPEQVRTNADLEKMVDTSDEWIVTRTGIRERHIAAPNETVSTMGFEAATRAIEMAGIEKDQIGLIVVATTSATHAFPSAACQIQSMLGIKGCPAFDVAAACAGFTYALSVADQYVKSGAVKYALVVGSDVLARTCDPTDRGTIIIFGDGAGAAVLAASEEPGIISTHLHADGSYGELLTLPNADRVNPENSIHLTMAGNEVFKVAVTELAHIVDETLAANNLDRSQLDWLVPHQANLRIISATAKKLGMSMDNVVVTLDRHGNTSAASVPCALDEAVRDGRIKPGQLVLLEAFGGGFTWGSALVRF
metric-name: IC50 (µM)

P = O=C(Nc1ccccc1)N(Cc1cc(Br)ccc1O)c1ccc(Cl)cc1
Q = O=C(Nc1ccccc1)N(Cc1cc(Br)ccc1O)c1ccc(Br)cc1
Look at P and Q . Which one has the lower recorded IC50 number? Let me know the label of the one you choose.
P

1 = O=C(Nc1ccccc1)N(Cc1cc(Br)cc(Br)c1O)c1ccc(Cl)cc1
2 = O=C(Nc1ccccc1)N(Cc1cc(Br)ccc1O)c1ccc(F)cc1
Look at 1 and 2 . Which one has the lower recorded IC50 number? Let me know the label of the one you choose.
2
